Hey, just so you know, these numbers are from paper PMC10281321.

# Tested on: LPS-stimulated RAW264.7 cells
# Method Summary: NO release inhibition in LPS-stimulated RAW264.7 cells (Griess reagent)
# Assay type: cell-based
# Test Parameters: Mus musculus; LPS-stimulated RAW264.7 cells; Griess Reagent
pIC50: −log10 of the molar value.
Recorded pIC50 by entry

Below, 2 molecules whose answers are already recorded.
Query block: Find the recorded pIC50 belonging to `CC(=O)Nc1ccc(NC(=O)c2cc(-c3ccc(C#N)cc3)cnc2N)cc1` and report it.
Result block: < 4.30

Query block: Given the entry `CCc1ccc(-c2cnc(N)c(C(=O)Nc3ccc(C(N)=O)cc3)c2)cc1` , report its measured pIC50.
Result block: < 4.30

For the next question, use this molecule.
Query block: GET /values?readout=pIC50&item= `CCc1ccc(-c2cnc(N)c(C(=O)Nc3ccc(Cl)cc3)c2)cc1`
Result block: < 4.30
